log10(IC50) overview
tested-target: Heat shock protein HSP90 (Homo sapiens, UniProt P07900+P08238)
assay-text: Inhibition of Hsp90 in human MCF7 cell lysates assessed as interaction with Cy3b-conjugated geldanamycin by FP assay
Format: cell-free
measured-property: log10(IC50) (log10 of the value in µM)

>>> df
                                   molecule  result_number
0  COc1cc(NC(C)CCCNC(C)C)c2ncccc2c1OC (stereo unspecified)           1.64
1  CC(CCCN)Nc1cc(O)cc2cccnc12 (stereo unspecified)           0.26
2  COc1cc(NCCCC(C)N)c2ncccc2c1.Cl.Cl (stereo unspecified)           0.76
3  CCN(CC)CCCC(C)Nc1cc(O)cc2cccnc12 (stereo unspecified)           0.04
4      COc1cc(NCCN(CC(C)C)CC(C)C)c2ncccc2c1           0.69
5         Br.CCN(CC)CCCCCNc1cc(O)cc2cccnc12          -0.14
6  CCN(CC)CCCNc1cc(OC)c(Nc2ccccc2)c2cccnc12           0.32
7  COc1cc(NC(C)CCCNC(C)C)c2ncccc2c1 (stereo unspecified)           1.16

###

IC50 overview
tested-target: Heat shock protein HSP90 (Homo sapiens, UniProt P07900+P08238)
assay-text: Inhibition of Hsp90 in human MCF7 cell lysates assessed as interaction with Cy3b-conjugated geldanamycin by FP assay
Assay type: cell-free
measured-property: IC50

In [3]: df
Out[3]:
                                   molecule    result
0  CC(N)CCCNc1cc(O)cc2cccnc12 (stereo not drawn)  < 1.6 µM
1                  NCCCCCNc1cc(O)cc2cccnc12    < 1 µM
2  COc1cc(NC(C)CCCN)c2ncccc2c1Oc1ccc(Cl)cc1 (stereo not drawn)   > 50 µM
3  CC(N)CCCCNc1cc(O)cc2cccnc12 (stereo not drawn)  < 1.6 µM
4  COc1ccc(Oc2c(OC)cc(NCCCCCNC(C)C)c3ncccc23)cc1   > 50 µM
5  COc1cc(NCCCN(C(C)C)C(C)C)c2nc(OC)cc(Cl)c2c1   > 50 µM
6  CCC(N)CCNc1cc(O)cc2cccnc12 (stereo not drawn)  < 1.6 µM
7             CCN(CC)CCCCNc1cc(O)cc2cccnc12   > 50 µM
